- TEST_METHOD_NOTES: chemical genetic growth profiling, strain panel (AID 1159580);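 note: tested at 20 µM; growth read once vehicle control cultures reached saturation at 30 °C; 1 = growth at the plate median or of vehicle wells; lower values mean less growth of the strain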
- CONDITION_PARAMETERS: S. cerevisiae deletion strains, growth OD, locus YKL009W, strain mrt4, active compounds read low
Out of some 5,500 compounds screened, about 2,000 (36%) were called active. Another 18% or so got no clear call; they are omitted. The list shows a part of the results.
REPORTED_PROPERTY: normalized growth

> print(dat)
                                    molecule  readout.number
 1           Cc1c(N(C)C)c(=O)n(-c2ccccc2)n1C           0.984
 2  COc1c(CC=C(C)C)c2c(c3oc(=O)c(-c4ccc(O)cc4)c(O)c13)C=CC(C)(C)O2           0.985
 3  COc1ccc(-c2c(O)c3cc4c(c(CC=C(C)C)c3oc2=O)OC(C)(C)CC4)cc1            1.11
 4  CC1(O)/C=C/C=C(\CO)C2CC(C)(C)C2(O)CC1 (stereo unspecified)           0.991
 5                   CCCCOc1ccc(CC(=O)NO)cc1            1.01
 6  CCc1cccc(C)c1N(C(=O)CCl)C(C)COC (stereo unspecified)            1.03
 7                  CC(C)N(C(=O)CCl)c1ccccc1            1.02
 8  CCc1ccc(CCOc2ccc(CC3SC(=O)NC3=O)cc2)nc1 (stereo unspecified)            1.01
 9  COc1ccc2c(c1)C1(C)CCC(=O)CC1CC2 (stereo unspecified)           0.969
10   COc1ccc2c(c1)[C@@]1(C)CCC(=O)C[C@H]1CC2           0.997
11  COc1c2c(c(CC=C(C)C)c3oc(=O)c(-c4ccc(O)cc4)c(O)c13)OC(C)(C)C=C2           0.925

====

- TEST_METHOD_NOTES: chemical genetic growth profiling, strain panel (AID 1159580);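 note: tested at 20 µM; growth read once vehicle control cultures reached saturation at 30 °C; 1 = growth at the plate median or of vehicle wells; lower values mean less growth of the strain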
- CONDITION_PARAMETERS: S. cerevisiae deletion strains, growth OD, locus YOR265W, strain rbl2
The whole screen tested about 5,500 compounds, of which about 2,000 (36%) were called active. Roughly 18% stayed inconclusive and do not appear here. Rule as the data show it: active = normalized growth mostly below about 0.91 (no sharp cut-off); inconclusive = no clear call, values can overlap the other calls; inactive = mostly above about 0.92. Some of the results follow.
Labels: active, inactive

MOLECULE	CLASS_NAME
CNc1ccccc1C(=O)N1CCc2c([nH]c3ccccc23)C1=O	inactive
Cc1ccc2c(c1)CC[C@H]1CC(=O)CC[C@]21C	inactive
COc1ccc([C@@H]2CC(=O)c3c(O)cc(O)cc3O2)cc1O	inactive
COc1ccc(C(=O)c2ccccc2O)c(O)c1	active
COC(=O)C1[C@H]2C[C@H]3c4[nH]c5ccccc5c4CCN3C[C@@H]2CC[C@@H]1O (stereo partly drawn)	inactive
COc1ccc2cc1Oc1ccc(cc1)C[C@H]1c3cc(c(OC)cc3CCN1C)Oc1c(OC)c(OC)cc3c1[C@H](C2)N(C)CC3	inactive
COC(=O)COc1cc(Cl)c(Cl)cc1Cl	inactive
COc1ccc2c(c1)OC[C@@H](Cc1ccc(OC)c(OC)c1)[C@H]2O	inactive
Cc1cc(=O)c2c(O)c(C)c(O)cc2o1	inactive
N#Cc1c(Cl)c(Cl)c(Cl)c(C#N)c1Cl	active
CCc1nc(N)nc(N)c1-c1ccc(Cl)cc1	inactive
CCC1(c2ccccc2)C(=O)NCNC1=O	inactive
CC(=O)[C@H]1CCC2C3C[C@H](C)C4=CC(=O)CC[C@]4(C)C3[C@@H](O)C[C@@]21C (stereo partly drawn)	inactive
CCN(CC)C(=S)SSC(=S)N(CC)CC	active
O=C(/C=C/C=C/c1ccc2c(c1)OCO2)N1CCCCC1	inactive
COc1ccc2cc1Oc1ccc(cc1)C[C@H]1c3c(cc4c(c3Oc3cc5c(cc3OC)CCN(C)[C@@H]5C2)OCO4)CCN1C	inactive
COc1ccc(-c2cc(=O)c3c(O)cc(OC)c(OC)c3o2)c(OC)c1	inactive
COc1ccc(C2CC(=O)c3ccc(OC)cc3O2)cc1 (stereo not drawn)	inactive
Cc1ccc(O)cc1	inactive
CC(C)N(C(=O)CCl)c1ccccc1	inactive
CC(=O)CC(=O)CCC(=O)O	inactive
O=C(O)COc1cc(Cl)c(Cl)cc1Cl	inactive
CC(=O)O[C@]1(C(C)=O)CCC2C3C[C@H](C)C4=CC(=O)CC[C@]4(C)C3CC[C@@]21C (stereo partly drawn)	inactive
COc1cc(O)c(C(=O)c2ccccc2)cc1O	inactive
COC(=O)[C@@H]1C(O)CC[C@H]2CN3CCc4c([nH]c5ccccc45)[C@@H]3C[C@@H]21 (stereo partly drawn)	inactive
COc1ccc2c(c1)[C@@]1(C)CCC(=O)C[C@H]1CC2	inactive
COc1cc2c(cc1OC)C(=O)C(CC1CCN(Cc3ccccc3)CC1)C2 (stereo not drawn)	inactive
CN1CCCC(n2nc(Cc3ccc(Cl)cc3)c3ccccc3c2=O)CC1 (stereo not drawn)	inactive
CN=C(NC#N)NCCSCc1nc[nH]c1C	inactive
OCc1ccccc1O[C@@H]1O[C@H](CO)[C@@H](O)[C@H](O)[C@H]1O	inactive
COc1cccc2c1CCC1CC(=O)CCC21C (stereo not drawn)	inactive
COc1ccc2c(c1)C1(C)CCC(=O)CC1CC2 (stereo not drawn)	inactive
C[C@@H]1O[C@@H](O[C@H]2[C@@H](Oc3cc(O)c4c(c3)O[C@H](c3ccc(O)cc3)CC4=O)O[C@H](CO)[C@@H](O)[C@@H]2O)[C@H](O)[C@H](O)[C@H]1O	inactive
NC(N)=NOCC[C@H](N)C(=O)O	inactive
CCC1(c2ccc(N)cc2)CCC(=O)NC1=O (stereo not drawn)	inactive
CC(=O)OC1CC23CC24CCC(OC2OCC(O)C(O)C2O)C(C)(C)C4CCC3C2(C)CC3OC4(CC(C)C3C12C)OC(O)C1(C)OC41 (stereo not drawn)	inactive
COc1ccc(C(=O)c2ccccc2)c(O)c1	active
NCC1CCCCC1CC(=O)O (stereo not drawn)	inactive
CC(C)[C@H](N)C(=O)OCCOCn1cnc2c(=O)[nH]c(N)nc21	inactive
CC[C@H]1OC(=O)C[C@@H](O)[C@H](C)[C@@H](O[C@@H]2O[C@H](C)[C@@H](O[C@H]3C[C@@](C)(O)[C@@H](O)[C@H](C)O3)[C@H](N(C)C)[C@H]2O)[C@@H](CC=O)C[C@@H](C)C(=O)/C=C/C(C)=C/[C@@H]1CO[C@@H]1O[C@H](C)[C@@H](O)[C@@H](OC)[C@H]1OC	inactive
CC(=O)O[C@]1(C(C)=O)CCC2C3C=C(C)C4=CC(=O)CCC4(C)C3CCC21C (stereo partly drawn)	inactive
CN1C2CC3C[C@H]1C(O3)C2O (stereo partly drawn)	inactive
CC(=O)O[C@]1(C(C)=O)CCC2C3C=C(Cl)C4=CC(=O)CC[C@]4(C)C3CC[C@@]21C (stereo partly drawn)	inactive
